Molecular target: Cathepsin K (Homo sapiens)
Experiment: Inhibitory constant against human cathepsin K using Z-Phe-Arg-AMC substrate
Conditions: read-out: Ki app
Listed compounds paired with reported Ki

{"columns": ["compound", "readout_qualifier", "Ki, nM"],
 "data": [
  ["CN1CCN(c2nc(-c3ccc(C(=O)NC4(C(=O)NCC#N)CCCCC4)cc3)cs2)CC1", "=", 0.2],
  ["N#CCNC(=O)C1(NC(=O)OCc2ccccc2)CC1", ">", 150000],
  ["N#CCNC(=O)C1(NC(=O)c2cccc(Br)c2)CCCCC1", "=", 230],
  ["N#CCNC(=O)C1(NC(=O)c2ccc(-c3csc(N4CCN(C5CCOCC5)CC4)n3)cc2)CCCCC1", "=", 0.47],
  ["N#CCNC(=O)C1(NC(=O)c2ccc(-c3csc(N4CCOCC4)n3)cc2)CCCCC1", "=", 2.3],
  ["N#CCNC(=O)C1(NC(=O)OCc2ccccc2)CCCC1", "=", 1500],
  ["N#CCNC(=O)C1(NC(=O)c2ccc(Br)cc2)CCCCC1", "=", 18],
  ["N#CCNC(=O)C1(NC(=O)c2csc(-c3ccncc3)n2)CCCCC1", "=", 150],
  ["N#CCNC(=O)C1(NC(=O)c2ccc(N)cc2)CCCCC1", "=", 32],
  ["CN(C)C1CCN(c2nc(-c3ccc(C(=O)NC4(C(=O)NCC#N)CCCCC4)cc3)cs2)C1 (stereo unspecified)", "=", 0.79],
  ["CN1CCC[C@H]1COc1ccc(-c2ccc(C(=O)NC3(C(=O)NCC#N)CCCCC3)cc2)cc1", "<", 0.25],
  ["CC[C@H](C)[C@H](NC(=O)OCc1ccccc1)C(=O)NCC#N", "=", 1500],
  ["CN1CCN(C(=O)c2ccc(C(=O)NC3(C(=O)NCC#N)CCCCC3)cc2)CC1", "=", 14],
  ["N#CCNC(=O)C1(NC(=O)c2ccc(-c3ccccc3)cc2)CCCCC1", "=", 6.2],
  ["CC(C)(C)C[C@H](NC(=O)OCc1ccccc1)C(=O)NCC#N", "=", 230],
  ["CC(C)(C)[C@H](NC(=O)OCc1ccccc1)C(=O)NCC#N", "=", 1900],
  ["COCCN1CCN(c2nc(-c3ccc(C(=O)NC4(C(=O)NCC#N)CCCCC4)cc3)cs2)CC1", "=", 0.48],
  ["CN1CCC(c2nc(-c3ccc(C(=O)NC4(C(=O)NCC#N)CCCCC4)cc3)cs2)CC1", "=", 1.6],
  ["C[C@@H](O)[C@H](NC(=O)OCc1ccccc1)C(=O)NCC#N", "=", 11000],
  ["N#CCNC(=O)C1(NC(=O)c2ccc(-c3ccc(S(=O)(=O)N4CCN(CC(F)(F)F)CC4)cc3)cc2)CCCCC1", "=", 6.1],
  ["N#CCNC(=O)C1(NC(=O)c2cccc(-c3ccccc3)c2)CCCCC1", "=", 210]
]}
